- protocolNotes: Cytotoxicity against HUVEC assessed as concentration at which viability is > 95 % after 24 hrs by MTT assay
- Format: cell-based
- assayConditions: human, HUVEC cells; read-out: MTD
attributeMeasured: MNTC at 24 h (µM)
Note: unit µM is implicit; provide only the numeric part.

// known answers, use as guide
INSERT INTO assay_data (compound, unitsymbol, endpointresult) VALUES
  ('CCOC(=O)C1C(c2cccc(Br)c2)N(c2ccccc2)OC12C(=O)Nc1ccccc12 (stereo not drawn)', 'µM', 203),
  ('CCOC(=O)C1C(c2ccc(Br)cc2)N(c2ccccc2)OC12C(=O)Nc1ccccc12 (stereo not drawn)', 'µM', 203);

input: What measured MNTC at 24 h goes with CCOC(=O)C1ON(c2ccccc2)C(c2cccc(Br)c2)C12C(=O)Nc1ccccc12 (stereo not drawn) ?
output: 203
